// reported EC50 for each item listed
Biological target: T1, Human VEGFR-3 extracellular domain (amino acids 25-329), AviTag, hexahistidine tag, biotinylated (human, UniProt P35916 25-329, biotinylated with BirA ligase (AviTag))
T1 chain (part 1 of 2): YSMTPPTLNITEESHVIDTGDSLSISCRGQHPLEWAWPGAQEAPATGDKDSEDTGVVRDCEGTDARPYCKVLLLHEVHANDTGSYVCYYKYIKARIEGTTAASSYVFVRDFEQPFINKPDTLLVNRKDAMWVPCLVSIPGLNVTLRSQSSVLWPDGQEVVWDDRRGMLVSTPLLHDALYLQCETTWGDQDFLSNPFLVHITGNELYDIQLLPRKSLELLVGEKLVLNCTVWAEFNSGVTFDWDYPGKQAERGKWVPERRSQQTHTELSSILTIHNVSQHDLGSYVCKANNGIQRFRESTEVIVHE
T1 chain (part 2 of 2): HHHHHH
Assay: yeast display flow cytometry binding
Parameter Measured: EC50 (nM)

Binder	Parameter Measured	Recorded Value
Clone 14 (protein) NTEILKSIDNEWRKTQCMPREVAIDVGKEFGVATNTFFKPPCVSVYRCGGCCIGEGLQCMNTSTSYLSKTLFEITVPLSQGPKPVTISFANHTSCRCMSKL	EC50	74.5
Clone 19 (protein) NTEILKSIDNEWRKTQCMPREVAIDVGKEFGVATNTFFKPPCVSVYRCGGCCNGEGLQCMNTSTSYLSKTLFEITVPLSQGPKPVTISFANHTSCRCMSKL	EC50	51.3
